Listing of recorded LOEC hemorrhage by entry.
Tested on: tg(cyp19a1b:GFP) zebrafish embryos
procedure.details: Refined FET: developmental effects / malformations
Assay type: in vivo, zebrafish (Danio rerio)
conditions.used: nominal
Procedure: Exposures were carried out in presaturated 24-well plates containing one embryo per well in 2 mL of test solution. The exposure was performed under semistatic conditions, with daily renewal of the test solution. […] Moreover, hatching rate and nonlethal developmental effects (i.e., yolk deformity, growth retardation, spontaneous movement, edema, blood tail circulation, heart rate, pigmentation, head and tail/spinal malformations, and hemorrhage) were monitored daily. […]
State just the number; it will be interpreted in mg/L.

Completed entries (count: 3):
Oc1ccc(Oc2ccc(O)cc2)cc1 [4,4’-ODP, 4-(4-hydroxyphenoxy)phenol] :: 0.99
Oc1ccc(C(=C(Cl)Cl)c2ccc(O)cc2)cc1 [BPC-Cl] :: 2.96
CCC(C)(c1ccc(O)cc1)c1ccc(O)cc1 [BPB, 4-[2-(4-hydroxyphenyl)butan-2-yl] phenol] :: 10

// compound CC(C)(c1ccc(O)cc1)c1ccc(O)cc1 [BPA] , assay tg(cyp19a1b:GFP) zebrafish embryos, LOEC hemorrhage value: 10

# lookup: Oc1ccc(Cc2ccc(O)cc2)cc1 [BPF, 4-[(4-hydroxyphenyl)methyl]phenol] on tg(cyp19a1b:GFP) zebrafish embryos, LOEC hemorrhage = 7.5

Let me check: Cc1cc(C(C)(C)c2ccc(O)c(C)c2)ccc1O [BPC] , system tg(cyp19a1b:GFP) zebrafish embryos, measured LOEC hemorrhage is 8.53

###

procedure.details: Refined Fish Embryo Acute Toxicity test (FET, OECD TG 236): mortality
Format: in vivo, zebrafish (Danio rerio)
conditions.used: tg(cyp19a1b:GFP), zebrafish, in vivo, LC50 (96h) experimental (FET test), nominal, brackets 95% CI
measurement.kind: LC50 at 96 h

The compound listed as CC(C)(c1ccc(O)cc1)c1ccc(O)cc1 has a reported LC50 at 96 h of 14.1 µg/mL

###

procedure.details: Refined Fish Embryo Acute Toxicity test (FET, OECD TG 236): mortality
Type: in vivo, zebrafish (Danio rerio)
conditions.used: tg(cyp19a1b:GFP), zebrafish, in vivo, other: waterborne exposure of embryos in test solution, LC50 (96h) experimental (FET test), nominal, brackets 95% CI
measurement.kind: log10 LC50 at 96 h (log10 of the value in µg/mL)
Transform log10 | Measure LC50 at 96 h | Unit µg/mL

C=CCOc1ccc(S(=O)(=O)c2ccc(O)cc2)cc1 :: 1.30

Lab note: measured log10 LC50 at 96 h of Oc1ccc(Cc2ccc(O)cc2)cc1 [BPF, 4-[(4-hydroxyphenyl)methyl]phenol] was 1.54

For reference, reported log10 LC50 at 96 h for Oc1ccc(Oc2ccc(O)cc2)cc1 [4,4’-ODP, 4-(4-hydroxyphenoxy)phenol] stands at 1.23

Summary for this compound, Oc1ccc(C(=C(Cl)Cl)c2ccc(O)cc2)cc1 : log10 LC50 at 96 h is 0.62

###

Test system: tg(cyp19a1b:GFP) zebrafish embryos
procedure.details: Refined FET: developmental effects / malformations
Assay type: in vivo, zebrafish (Danio rerio)
conditions.used: nominal
Method: Exposures were carried out in presaturated 24-well plates containing one embryo per well in 2 mL of test solution. The exposure was performed under semistatic conditions, with daily renewal of the test solution. […] Moreover, hatching rate and nonlethal developmental effects (i.e., yolk deformity, growth retardation, spontaneous movement, edema, blood tail circulation, heart rate, pigmentation, head and tail/spinal malformations, and hemorrhage) were monitored daily. […]
Below, each of the molecules is paired with its reported LOEC heart rate disruption value.

CCC(C)(c1ccc(O)cc1)c1ccc(O)cc1 [BPB, 4-[2-(4-hydroxyphenyl)butan-2-yl] phenol] :: 10 mg/L
Oc1ccc(Oc2ccc(O)cc2)cc1 [4,4’-ODP, 4-(4-hydroxyphenoxy)phenol] :: 2.96 mg/L
CC(C)(c1cc(Cl)c(O)c(Cl)c1)c1cc(Cl)c(O)c(Cl)c1 :: 1 mg/L

Per the record, Oc1ccc(Cc2ccc(O)cc2)cc1 [BPF, 4-[(4-hydroxyphenyl)methyl]phenol] has LOEC heart rate disruption of 60 mg/L

molecule C=CCOc1ccc(S(=O)(=O)c2ccc(O)cc2)cc1 , LOEC heart rate disruption observed: 33.3 mg/L

Noted for Cc1cc(C(C)(C)c2ccc(O)c(C)c2)ccc1O : its LOEC heart rate disruption reads 8.53 mg/L

Per the records, this molecule ( CC(C)(c1ccc(O)cc1)c1ccc(O)cc1 ) has LOEC heart rate disruption equal to 20 mg/L

get_value(item= Oc1ccc(C(=C(Cl)Cl)c2ccc(O)cc2)cc1 , readout=LOEC heart rate disruption) returns 8.89 mg/L

###

Test system: tg(cyp19a1b:GFP) zebrafish embryos
procedure.details: Refined FET: developmental effects / malformations
Assay type: in vivo, zebrafish (Danio rerio)
conditions.used: nominal
As shown below, each of these molecules has a reported LOEC no spontaneous movement value.
Numeric only. Scale: mg/L

Use the examples below as a reference point.
CCC(C)(c1ccc(O)cc1)c1ccc(O)cc1 [BPB, 4-[2-(4-hydroxyphenyl)butan-2-yl] phenol] :: 10
CC(C)(c1cc(Cl)c(O)c(Cl)c1)c1cc(Cl)c(O)c(Cl)c1 [TCBPA, Tetrachloro-bisphenol A] :: 2
CC(C)(c1ccc(O)cc1)c1ccc(O)cc1 [BPA] :: 10

What the record says about C=CCOc1ccc(S(=O)(=O)c2ccc(O)cc2)cc1 [BPS-MAE, 4-(4-prop-2-enoxyphenyl)sulfonylphenol] : LOEC no spontaneous movement is 33.3

So, Oc1ccc(Cc2ccc(O)cc2)cc1 [BPF, 4-[(4-hydroxyphenyl)methyl]phenol] ? Its LOEC no spontaneous movement was 60

Entry Oc1ccc(C(=C(Cl)Cl)c2ccc(O)cc2)cc1 [BPC-Cl] — recorded LOEC no spontaneous movement = 2.96

###

Tested on: tg(cyp19a1b:GFP) zebrafish embryos
procedure.details: Refined FET: developmental effects / malformations
Format: in vivo, zebrafish (Danio rerio)
conditions.used: Danio rerio; nominal; end of 96 h exposure; read-out: EC50 malformations (cumulative sublethal end points)
Cut-off 3 µg/mL on EC50: below means Fulfilled, at or above means Not fulfilled.

CC(C)(c1ccc(O)cc1)c1ccc(O)cc1 :: Not fulfilled
O=S(=O)(c1ccc(O)cc1)c1ccc(OCc2ccccc2)cc1 :: Not fulfilled
CCC(C)(c1ccc(O)cc1)c1ccc(O)cc1 [BPB, 4-[2-(4-hydroxyphenyl)butan-2-yl] phenol] :: Not fulfilled
Cc1cc(C(C)(C)c2ccc(O)c(C)c2)ccc1O :: Fulfilled
C=CCOc1ccc(S(=O)(=O)c2ccc(O)cc2)cc1 :: Not fulfilled
CC(C)(c1cc(Cl)c(O)c(Cl)c1)c1cc(Cl)c(O)c(Cl)c1 :: Fulfilled

We now examine a further compound.
### Prompt Given the entry Oc1ccc(Cc2ccc(O)cc2)cc1 [BPF, 4-[(4-hydroxyphenyl)methyl]phenol] , would its reported EC50 be below 3 µg/mL?
### Response Not fulfilled

###

Each record here notes measured LOEC deformity of yolk.
Test system: tg(cyp19a1b:GFP) zebrafish embryos
procedure.details: Refined FET: developmental effects / malformations
Assay type: in vivo, zebrafish (Danio rerio)
conditions.used: nominal; at least 10% of embryos affected

Given item Oc1ccc(C(=C(Cl)Cl)c2ccc(O)cc2)cc1 , the value recorded as its LOEC deformity of yolk is 0.99 mg/L

CC(C)(c1cc(Cl)c(O)c(Cl)c1)c1cc(Cl)c(O)c(Cl)c1 yielded LOEC deformity of yolk of 1 mg/L

Item: O=S(=O)(c1ccc(O)cc1)c1ccc(O)cc1 [BPS, 4-(4-hydroxyphenyl)sulfonylphenol] | LOEC deformity of yolk: 400 mg/L

###

Test system: tg(cyp19a1b:GFP) zebrafish embryos
procedure.details: Refined FET: developmental effects / malformations
Type: in vivo, zebrafish (Danio rerio)
conditions.used: nominal
measurement.kind: LOEC no/Less pigmentation (mg/L)
The answer is to be given in mg/L; state only the numeric part.

Some molecules with recorded LOEC no/Less pigmentation:
Oc1ccc(C(=C(Cl)Cl)c2ccc(O)cc2)cc1 :: 8.89
CC(C)(c1cc(Cl)c(O)c(Cl)c1)c1cc(Cl)c(O)c(Cl)c1 :: 1
Oc1ccc(Oc2ccc(O)cc2)cc1 [4,4’-ODP, 4-(4-hydroxyphenoxy)phenol] :: 0.99

We next turn to a different molecule, shown below.
Short answer for CC(C)(c1ccc(O)cc1)c1ccc(O)cc1 : LOEC no/Less pigmentation was 10

###

procedure.details: Refined Fish Embryo Acute Toxicity test (FET, OECD TG 236): mortality
Type: in vivo, zebrafish (Danio rerio)
conditions.used: tg(cyp19a1b:GFP), zebrafish, in vivo, other: waterborne exposure of embryos in test solution, LC50 (96h) experimental (FET test), nominal, brackets 95% CI
measurement.kind: LC50 at 96 h (µg/mL)
Your answer is read as µg/mL, so omit the unit and give the number.

Answered examples (3):
O=S(=O)(c1ccc(O)cc1)c1ccc(OCc2ccccc2)cc1 :: 3.17
CCC(C)(c1ccc(O)cc1)c1ccc(O)cc1 [BPB, 4-[2-(4-hydroxyphenyl)butan-2-yl] phenol] :: 6.85
CC(C)(c1cc(Cl)c(O)c(Cl)c1)c1cc(Cl)c(O)c(Cl)c1 :: 0.88

Now turn to the next molecule.
Record Cc1cc(C(C)(C)c2ccc(O)c(C)c2)ccc1O . Reported LC50 at 96 h: 4.92
